# testName: Metabolic stability in Wistar rat brain assessed as remaining parent compound after 10 mins by HPLC analysis
# Format: ADME, tissue-based
# experimentalContext: read-out: Stability
measurementLabel: remaining at 10 min (%)
All answers are understood in %, so give the number only.

Which value of remaining at 10 min has been reported for CCN(CC)C(=O)C1Sc2ccccc2-c2c1c1cc(OC)ccc1n2CCF (racemic) in the records?
98

Another compound: [3H]C([3H])([3H])N(C(=O)c1cc2ccccc2c(-c2ccccc2Cl)n1)C(C)CC (centres undefined)
100

Another compound: CCN(CC)C(=O)C1Sc2ccccc2-c2c1c1ccccc1n2CCF (racemic)
99

Another compound: CCN(CC)C(=O)C1Sc2ccccc2-c2c1c1ccc(OC)cc1n2CCF (racemic)
99

// data source = ChEMBL document CHEMBL2375274
